Attribution: ChEMBL document CHEMBL1125590

Molecular target: Adenosine deaminase (Bos taurus)
Sequence (P56658 whole entry): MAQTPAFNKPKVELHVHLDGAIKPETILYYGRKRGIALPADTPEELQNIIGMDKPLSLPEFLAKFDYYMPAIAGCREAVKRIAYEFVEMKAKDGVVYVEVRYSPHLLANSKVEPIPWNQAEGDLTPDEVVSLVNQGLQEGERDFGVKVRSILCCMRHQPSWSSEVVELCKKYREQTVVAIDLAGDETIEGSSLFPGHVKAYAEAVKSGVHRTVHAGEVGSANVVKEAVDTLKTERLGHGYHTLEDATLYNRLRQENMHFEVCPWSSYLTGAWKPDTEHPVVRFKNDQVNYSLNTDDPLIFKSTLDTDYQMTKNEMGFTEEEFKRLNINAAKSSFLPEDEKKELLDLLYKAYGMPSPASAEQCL
Experiment: Compound was tested for the inhibition of Adenosine deaminase from calf intestine; NA indicates not active
measurement type: Ki

{"molecule": "Cc1ccc(C(=O)OC[C@H]2O[C@@H](n3cnc4c(NO)nc(Cl)nc43)C[C@@H]2OC(=O)c2ccc(C)cc2)cc1", "measurement type": "Ki", "obs value": "Not Active"}
{"molecule": "OC[C@H]1OC(n2cnc3c(NO)nc(Cl)nc32)[C@H](O)[C@@H]1O (stereo not given in full)", "measurement type": "Ki", "obs value": "Not Active"}
{"molecule": "Cc1ccc(C(=O)OC[C@H]2O[C@@H](n3cnc4c(NO)cc(Cl)nc43)C[C@@H]2OC(=O)c2ccc(C)cc2)cc1", "measurement type": "Ki", "obs value": "Not Active"}
{"molecule": "O=[N+]([O-])c1cc(Cl)nc2c1ncn2C1O[C@H](CO)[C@@H](O)[C@H]1O (stereo not given in full)", "measurement type": "Ki", "obs value": "Not Active"}
{"molecule": "O=[N+]([O-])c1ccnc2c1ncn2[C@H]1C[C@H](O)[C@@H](CO)O1", "measurement type": "Ki", "obs value": "Not Active"}

----------
A collection of compounds and their measured Ki
Biological target: UniProtKB P56658
Assay: Compound was tested for the inhibition of Adenosine deaminase from calf intestine.

{"compound": "Cc1ccc(C(=O)OC[C@H]2O[C@@H](n3cnc4c(NO)ccnc43)C[C@@H]2OC(=O)c2ccc(C)cc2)cc1", "Ki, µM": 5.3}
{"compound": "OC[C@H]1O[C@@H](n2cnc3c(NO)ccnc32)[C@H](O)[C@@H]1O", "Ki, µM": 1.2}
{"compound": "OC[C@H]1O[C@@H](n2cnc3c(NO)ccnc32)C[C@@H]1O", "Ki, µM": 0.27}
{"compound": "OC[C@H]1OC(n2cnc3c(NO)cc(Cl)nc32)[C@H](O)[C@@H]1O (some centres undefined)", "Ki, µM": 69}
